B1: Hairpin Ribozyme (parent)
chain: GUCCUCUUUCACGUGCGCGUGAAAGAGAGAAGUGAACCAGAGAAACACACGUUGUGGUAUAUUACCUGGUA

variants of: B1; assay: self-cleavage, relative activity (ratio to wild type); higher = more cleavage; co-transcriptional

# sequence_text, self-cleavage
measured = [
    ("GUCCUCUUUCACGUGCGCGUGAAAGAGAGAAGUGAACCGGAGAAACACACGUUGUGGUAUAUUACCUCGUA [A39G G68C]", 0.103),
    ("AUCCUCUUUCACGUGCGCGUGAAAGAGAGAAGUGAACCAGAGAAACACCCGUUGUGGUAUAUUACCUGGUA [G1A A49C]", 0.0908),
    ("GUCCUCUUUCACGUGCGCGUGAAAGAGAGAAGUGAACCAGAGAAACACACGUUGUGGUAUAUUCUCUGGUA [A64C C65U]", 0.223),
    ("GUCCUCUUUCACGUGCGCGUGAAAGAGUGAAGUGAACCAGAGAAACACACGUUAUGGUAUAUUACCUGGUA [A28U G54A]", 0.32),
    ("GUCCUCUUUCACGUGCACGUGAAAGAGAGAAGUGAACCAGAGAAACACACGUUGUGGUAUAUUGCCUGGUA [G17A A64G]", 0.615),
    ("GUCCUCUUUCACGUGCGCGUGAAAGAGAGAAGAGAACCAGAGAAACACACGUAGUGGUAUAUUACCUGGUA [U33A U53A]", 0.103),
    ("GUCCUCUUUCACGUGCGCGUGAAAGAGAGAAGUGAACCAGAGAAACACACGUUGUGGUAUAUUACCUGGGA [U70G]", 0.844),
    ("GUCCUCUUUCACGUGCACGUAAAAGAGAGAAGUGAACCAGAGAAACACACGUUGUGGUAUAUUACCUGGUA [G17A G21A]", 0.792),
    ("GUCCACUUUCACGUGCGCGUGAAAGAGCGAAGUGAACCAGAGAAACACACGUUGUGGUAUAUUACCUGGUA [U5A A28C]", 0.297),
    ("GUCCUCUUUCACGUGCGCGUGAAAGAGAGAAGUGAACCAGAGAAACACAUGUUGUGGUAUAUUACCUGGUG [C50U A71G]", 0.457),
    ("GUCCCCUUUCACGUGCGCGUGAAAGAGAGAAGUGAACCAGAGAAACACACGUAGUGGUAUAUUACCUGGUA [U5C U53A]", 0.535),
    ("GUCCUCUUUCACGACCGCGUGAAAGAGAGAAGUGAACCAGAGAAACACACGUUGUGGUAUAUUACCUGGUA [U14A G15C]", 1.06),
    ("GUCUUCUUUCACGUGCGCGUGAAAGAGAGAAGUGAACCGGAGAAACACACGUUGUGGUAUAUUACCUGGUA [C4U A39G]", 0.122),
    ("GUCCUCUUUCAAGUGCGCGUGAAAGAGAAAAGUGAACCAGAGAAACACACGUUGUGGUAUAUUACCUGGUA [C12A G29A]", 0.162),
    ("GUCCUCUUGCACGUGCGCGUGAAAGAGAGAAGUGAACCAGAGAAACACACGUUGUGGUAUCUUACCUGGUA [U9G A61C]", 0.115),
    ("GUCGUCUUUCACGUGCGCGUGAAAGAGAGAAGAGAACCAGAGAAACACACGUUGUGGUAUAUUACCUGGUA [C4G U33A]", 0.154),
    ("GUCUUCUUUCACGUGCGCGUGAAAGAGAGUAGUGAACCAGAGAAACACACGUUGUGGUAUAUUACCUGGUA [C4U A30U]", 0.13),
    ("GUACUCUUUCACGUGCGCGUGAAAGAGAGAAGUGAACCAGAGAAACACACGUUGUGGUAUAUAACCUGGUA [C3A U63A]", 0.0798),
    ("GUCCUAUUUCACGUGCGCGUAAAAGAGAGAAGUGAACCAGAGAAACACACGUUGUGGUAUAUUACCUGGUA [C6A G21A]", 0.6),
    ("GUCCUCUUUCACGUGCGCGUAAAAGAGAGAAGUGAACCAGAGAAACACACGUUGUGGUAUAUUCCCUGGUA [G21A A64C]", 0.207),
    ("GUCCUUUUUCACGUGCGCGUGAAAGAGAGAAGUGAACCAGAGAAACACACGUUGUGGUAUAUUACCUGGUC [C6U A71C]", 1.05),
    ("GUCCUCUUUCACGUGCGCGUGAAAGAGCGAAGUGAACCAGAGAAACACACGUUGUGGUAUAUUACCUAGUA [A28C G68A]", 0.182),
    ("GUCCUCUUUCACGUGCUCGUGAAAGAGAGAAGUGGACCAGAGAAACACACGUUGUGGUAUAUUACCUGGUA [G17U A35G]", 1.02),
    ("GUCCUCUUUCUCGUGCGCGUGAACGAGAGAAGUGAACCAGAGAAACACACGUUGUGGUAUAUUACCUGGUA [A11U A24C]", 0.211),
    ("GUCCUCUUUCACGUGCGCGUGAAAGAGAGAAGCGAAGCAGAGAAACACACGUUGUGGUAUAUUACCUGGUA [U33C C37G]", 0.0717),
    ("GUCCUCUUUCACGUGCGCGUGAAAGAGAGAAUUGAACGAGAGAAACACACGUUGUGGUAUAUUACCUGGUA [G32U C38G]", 0.125),
]

Measured values drawn from the RNAGym collection of RNA variant scans (doi:10.7554/elife.80360) for this set.
